Data origin, for the record: ChEMBL document CHEMBL3734753

Assignment: determine reported pKi for the given molecules.
target: Nitric oxide synthase 3 (Bos taurus, UniProt P29473); experiment: Inhibition of recombinant bovine eNOS expressed in Escherichia coli assessed as nitric oxide production by hemoglobin capture assay
Sequence (P29473 whole entry): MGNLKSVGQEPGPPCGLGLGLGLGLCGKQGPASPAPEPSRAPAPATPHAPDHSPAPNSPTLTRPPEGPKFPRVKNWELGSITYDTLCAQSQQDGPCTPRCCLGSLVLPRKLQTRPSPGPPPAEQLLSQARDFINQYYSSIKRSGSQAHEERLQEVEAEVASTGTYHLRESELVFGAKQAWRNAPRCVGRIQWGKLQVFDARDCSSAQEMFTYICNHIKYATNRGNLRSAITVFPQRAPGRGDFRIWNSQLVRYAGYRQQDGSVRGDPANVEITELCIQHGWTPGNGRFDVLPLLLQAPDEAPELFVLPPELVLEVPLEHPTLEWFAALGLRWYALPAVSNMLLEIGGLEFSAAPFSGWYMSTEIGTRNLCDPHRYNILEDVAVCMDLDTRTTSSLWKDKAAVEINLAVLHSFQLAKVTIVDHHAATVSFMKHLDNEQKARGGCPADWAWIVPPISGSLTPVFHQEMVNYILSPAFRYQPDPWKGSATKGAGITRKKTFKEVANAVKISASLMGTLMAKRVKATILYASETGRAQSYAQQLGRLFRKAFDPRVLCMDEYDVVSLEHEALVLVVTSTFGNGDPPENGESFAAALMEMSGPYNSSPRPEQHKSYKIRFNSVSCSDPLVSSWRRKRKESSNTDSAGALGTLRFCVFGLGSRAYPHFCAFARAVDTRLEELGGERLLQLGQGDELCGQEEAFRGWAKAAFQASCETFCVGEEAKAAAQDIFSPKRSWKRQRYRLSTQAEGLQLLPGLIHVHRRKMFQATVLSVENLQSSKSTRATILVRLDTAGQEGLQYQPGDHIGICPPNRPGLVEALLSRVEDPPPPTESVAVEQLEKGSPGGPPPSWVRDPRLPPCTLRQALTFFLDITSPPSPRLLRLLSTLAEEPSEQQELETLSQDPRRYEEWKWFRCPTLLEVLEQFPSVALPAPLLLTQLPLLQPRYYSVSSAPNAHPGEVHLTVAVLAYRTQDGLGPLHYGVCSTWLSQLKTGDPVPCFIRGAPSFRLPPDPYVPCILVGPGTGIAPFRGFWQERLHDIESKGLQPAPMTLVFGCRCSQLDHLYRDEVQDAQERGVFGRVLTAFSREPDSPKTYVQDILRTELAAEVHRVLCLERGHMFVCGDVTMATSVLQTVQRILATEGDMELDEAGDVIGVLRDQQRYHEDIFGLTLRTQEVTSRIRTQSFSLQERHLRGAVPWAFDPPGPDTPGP
Give bare numbers, as −log10 of the molar value.

Example molecules with recorded pKi:
CN(C)CCc1cccc(OCc2ccc3ccc(N)nc3c2)c1    4.75
CNCc1cncc(OCc2ccc3ccc(N)nc3c2)c1    5.48

Ask: What value of measured pKi is listed for `CN(C)CCOc1cccc(OCc2ccc3ccc(N)nc3c2)c1` ?
Result: 4.51

###

molecular target: Nitric oxide synthase 1 (Rattus norvegicus); assay: Inhibition of wild type recombinant rat nNOS expressed in Escherichia coli assessed as nitric oxide production by hemoglobin capture assay
Sequence (P29476 whole entry): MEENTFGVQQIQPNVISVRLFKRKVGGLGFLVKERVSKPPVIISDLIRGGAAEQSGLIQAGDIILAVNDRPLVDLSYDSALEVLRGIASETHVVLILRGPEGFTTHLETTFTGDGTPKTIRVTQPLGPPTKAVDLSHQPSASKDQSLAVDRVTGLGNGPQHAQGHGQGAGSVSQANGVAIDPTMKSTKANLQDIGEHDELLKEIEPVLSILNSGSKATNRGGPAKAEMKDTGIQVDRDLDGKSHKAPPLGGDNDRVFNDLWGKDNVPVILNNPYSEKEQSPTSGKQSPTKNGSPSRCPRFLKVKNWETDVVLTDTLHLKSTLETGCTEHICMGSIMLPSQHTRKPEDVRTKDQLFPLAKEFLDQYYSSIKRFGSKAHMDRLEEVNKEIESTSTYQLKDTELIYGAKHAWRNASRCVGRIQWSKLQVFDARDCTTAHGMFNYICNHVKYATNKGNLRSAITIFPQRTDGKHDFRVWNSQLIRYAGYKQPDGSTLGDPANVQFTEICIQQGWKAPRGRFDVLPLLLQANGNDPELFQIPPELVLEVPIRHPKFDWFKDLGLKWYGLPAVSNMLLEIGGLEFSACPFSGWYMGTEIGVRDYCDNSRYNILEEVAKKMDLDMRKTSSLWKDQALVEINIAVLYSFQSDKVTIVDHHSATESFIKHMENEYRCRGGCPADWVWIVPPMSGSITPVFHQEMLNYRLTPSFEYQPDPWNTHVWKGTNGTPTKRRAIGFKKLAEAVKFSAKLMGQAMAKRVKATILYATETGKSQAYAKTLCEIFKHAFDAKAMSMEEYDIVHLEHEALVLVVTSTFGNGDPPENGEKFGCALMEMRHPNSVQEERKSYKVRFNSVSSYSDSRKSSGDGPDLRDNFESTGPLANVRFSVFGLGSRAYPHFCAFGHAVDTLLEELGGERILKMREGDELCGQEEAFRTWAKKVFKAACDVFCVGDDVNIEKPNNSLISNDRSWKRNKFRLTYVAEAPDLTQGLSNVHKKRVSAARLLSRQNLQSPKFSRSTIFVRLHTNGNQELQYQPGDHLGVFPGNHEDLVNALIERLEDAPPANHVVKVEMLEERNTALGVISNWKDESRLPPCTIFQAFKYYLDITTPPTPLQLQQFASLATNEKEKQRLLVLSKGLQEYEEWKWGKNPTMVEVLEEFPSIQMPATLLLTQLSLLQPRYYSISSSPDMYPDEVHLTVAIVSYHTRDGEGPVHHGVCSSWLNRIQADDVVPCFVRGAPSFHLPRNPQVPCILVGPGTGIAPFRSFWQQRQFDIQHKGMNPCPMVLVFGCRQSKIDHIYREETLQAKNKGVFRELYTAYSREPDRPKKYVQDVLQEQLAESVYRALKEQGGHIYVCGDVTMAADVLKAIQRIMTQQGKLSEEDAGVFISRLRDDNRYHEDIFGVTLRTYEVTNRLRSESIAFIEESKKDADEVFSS
experimental readout: pKi
Numbers only, as −log10 of the molar value.

Example compounds with recorded pKi:
CN(C)CCc1cccc(OCc2ccc3ccc(N)nc3c2)c1    6.33
CNCc1cncc(OCc2ccc3ccc(N)nc3c2)c1    7.37
Nc1ccc2ccc(COc3cccnc3)cc2n1    6.15
CNCc1cccc(NCc2ccc3ccc(N)nc3c2)c1    6.24
CNCc1ccc(OCc2ccc3ccc(N)nc3c2)cc1    6.48

Record pKi per entry; entries follow.
1. CN(C)CCCc1cccc(OCc2ccc3ccc(N)nc3c2)c1
2. CNC(C)c1cccc(OCc2ccc3ccc(N)nc3c2)c1 (racemic)

Result:
[6.19, 6.44]
